tested_on: Bs-CspB F38A (Bacillus subtilis, UniProt P32081 1-67, F38A)
assay_info: tryptophan fluorescence quenching
experimental_endpoint: pKd
Quick note: pKd values are minus log10 of concentrations in mol/L.

Supply measured pKd of TTTTTTT (ssDNA) [dT7] in your reply. 6.64
